Experiment: Metabolic stability in Sprague-Dawley rat hepatocytes assessed as intrinsic clearance at 1 uM measured up to 120 mins by LC-MS/MS analysis
Type: ADME, cell-based, Hepatocyte
Details: read-out: CLH
measured_attribute: CLint scaled at 1 µM (mL/min/kg)
One number for each entry, in mL/min/kg.

Input: GET /values?readout=CLint scaled at 1 µM&item= CN1CCC([C@@](C)(O)c2ccc3cnc(Nc4cc(C(F)(F)F)ncc4F)cc3n2)CC1
Output: 17

---

Species on record: Homo sapiens
Assay: Selectivity ratio of IC50 for inhibition of full length N-terminal GST tagged human CDK2(1 to 298 residues)/CyclinA2 (1 to 432 residues) to IC50 for inhibition of full length N-terminal GST fused human CDK5(1 to 292 residues)/ p25 (99 to 307 residues)
For each record, write down the corresponding Ratio IC50.
Give bare numbers.

CN1CCC([C@@](C)(O)c2ccc3cnc(Nc4ccc(-n5ccc(CO)n5)cc4F)cc3n2)CC1 | 65
CCc1ccc(F)c(Nc2cc3nc([C@](C)(O)C4CCN(C)CC4)ccc3cn2)c1 | 92
CN1CCC([C@@H](O)c2ccc3cnc(Nc4ccc(-n5ccc(CO)n5)cc4F)cc3n2)CC1 | 102
CN1CCC([C@@](C)(O)c2ccc3cnc(Nc4ccc(-n5cccn5)cc4F)cc3n2)CC1 | 44
CN1CCC([C@@](C)(O)c2ccc3cnc(Nc4cc(C(F)(F)F)ccc4F)cc3n2)CC1 | 87
CN1CCC([C@@](C)(O)c2ccc3cnc(Nc4cc(N5CCOCC5)c(C#N)cc4F)cc3n2)CC1 | 196
CN1CCC([C@@](C)(O)c2ccc3cnc(Nc4ccccc4)cc3n2)CC1 | 30
CC(C)Oc1ccc(F)c(Nc2cc3nc([C@](C)(O)C4CCN(C)CC4)ccc3cn2)c1 | 98

Dear colleague, could you send me Ratio IC50 for each of the items below? Thanks.
1. CN1CCC([C@@](C)(O)c2ccc3cnc(Nc4cc(C(F)(F)F)ncc4F)cc3n2)CC1
2. CN1CCC([C@@](C)(O)c2ccc3cnc(Nc4cc(N5CCOCC5)ccc4F)cc3n2)CC1
3. CN1CCC([C@@](C)(O)c2ccc3cnc(Nc4ccc(C#N)cc4F)cc3n2)CC1
4. C[C@](O)(c1ccc2cnc(Nc3ccc(-n4ccc(CO)n4)cc3F)cc2n1)C1CCNCC1
5. OCc1ccn(-c2ccc(Nc3cc4nc(NC5CCNCC5)ccc4cn3)c(F)c2)n1
6. OCc1ccn(-c2ccc(Nc3cc4nc(CC5CCNCC5)ccc4cn3)c(F)c2)n1

Output:
92
108
41
70
45
51

State the recorded Ratio IC50 for every item in the following list.
1. OCc1ccn(-c2ccc(Nc3cc4nc(OC5CCNCC5)ccc4cn3)c(F)c2)n1
2. CN1CCC([C@@](C)(O)c2ccc3cnc(Nc4cc(N5CCOCC5)ncc4F)cc3n2)CC1
3. CN1CCC([C@@](C)(O)c2ccc3cnc(Nc4cccc(N5CCOCC5)c4)cc3n2)CC1
4. CN1CCC(Oc2ccc3cnc(Nc4ccc(-n5ccc(CO)n5)cc4F)cc3n2)CC1

Output:
[30, 94, 74, 34]

Input: // lookup Ratio IC50 for CN1CCC([C@@](C)(O)c2ccc3cnc(Nc4ccc(-c5cccn(C)c5=O)cc4F)cc3n2)CC1
Output: 94

Taken from ChEMBL document CHEMBL5046275.
